From: PubChem BioAssay (NCATS)

System: DIV30
PROTOCOL NOTES: qHTS profiling for inhibitors of Plasmodium falciparum proliferation (AID 504749); also: nearly all actives have a fitted effect of over 60% in size
CONDITION DESCRIPTION: P. falciparum in erythrocytes, SYBR Green DNA, 72 h; series mostly up to 12.8 µM
Description: NIH National Institute of Allergy and Infectious Diseases [NIAID] NIH Chemical Genomics Center [NCGC] […] Because mature erythrocytes lack DNA, only Plasmodium-derived DNA is detected. NCGC Assay Protocol Summary: The SYBR Green viability assay was adapted from a method described previously (Plouffe et al., 2008). […] The following morning, fluorescence intensity at 485(14) nm excitation and 535(25) nm emission wavelengths was measured on an EnVision (Perkin Elmer) plate reader. […]
Inconclusive results are not listed. Activity calls are given as the source filed them. Calls follow the shape of the dose curve; as a rule, active = well fitted inhibition curve with a large enough effect; inconclusive = small, poorly fitted or top-dose-only effect; inactive = flat fitted curve, though single readings scatter.
Lab note: assign the record to one of active, inactive

// known answers, use as guide
>  <COMPOUND>
CC1(C)[C@@H](OC(=O)CCC(=O)O)CC[C@@]2(C)[C@H]1CC[C@@]1(C)[C@H]2C(=O)C=C2[C@H]3C[C@](C)(C(=O)O)CC[C@]3(C)CC[C@@]21C

>  <LABEL CLASS>
inactive

$$$$
>  <COMPOUND>
CCN(CCCCOC(=O)c1ccc(OC)c(OC)c1)[C@@H](C)Cc1ccc(OC)cc1

>  <LABEL CLASS>
inactive

$$$$
>  <COMPOUND>
N[C@@H]1C(O)OC(CO)C(O)C1O (stereo partly drawn)

>  <LABEL CLASS>
inactive

$$$$
>  <COMPOUND>
CCN[C@@H]1C[C@H](N)[C@H](O[C@H]2OC(CN)=CC[C@H]2N)[C@@H](O)[C@H]1O[C@H]1OC[C@@](C)(O)[C@@H](NC)[C@@H]1O

>  <LABEL CLASS>
inactive

$$$$

Any idea what this test logged for "Nc1nc(NC2CC2)c2ncn([C@H]3C=C[C@@H](CO)C3)c2n1" ?
inactive

Any idea what this test logged for "COC(=O)[C@@H]1[C@@H]2C[C@H]3c4[nH]c5cc(OC)ccc5c4CCN3C[C@@H]2C[C@H](OC(=O)/C=C\c2cc(OC)c(OC)c(OC)c2)[C@H]1OC" ?
active

Any idea what this test logged for "C[C@H](N[C@@H](C)COc1ccccc1)[C@H](O)c1ccc(O)cc1" ?
inactive

Any idea what this test logged for "CC(C)(C)NC[C@H](O)COc1cccc2c1C[C@@H](O)[C@@H](O)C2" ?
inactive

###

Tested on: CP237
PROTOCOL NOTES: qHTS profiling for inhibitors of Plasmodium falciparum proliferation (AID 504749); also: nearly all actives have a fitted effect of over 60% in size
CONDITION DESCRIPTION: P. falciparum in erythrocytes, SYBR Green DNA, 72 h; series mostly up to 12.8 µM
Inconclusive results are not listed. Activity calls are given as the source filed them. The call rests on the fitted dose curve; in most records, active means well fitted inhibition curve with a large enough effect; inconclusive means small, poorly fitted or top-dose-only effect; inactive means flat fitted curve, though single readings scatter.
Lab note: assign the record to one of true (1) (active), false (0) (inactive)

// known answers, use as guide
>  <COMPOUND>
Clc1ccc([C@H](Cn2ccnc2)OCc2c(Cl)cccc2Cl)c(Cl)c1

>  <TARGET SYSTEM>
CP237

>  <LABEL CLASS>
true (1)

$$$$
>  <COMPOUND>
CC(=O)OC1CCC2C3CCc4cc(O)ccc4C3CCC12C (stereo unspecified)

>  <TARGET SYSTEM>
CP237

>  <LABEL CLASS>
false (0)

$$$$
>  <COMPOUND>
CCN(CC)CCOC(=O)[C@@H](Cc1cccc2ccccc12)C[C@@H]1CCCO1

>  <TARGET SYSTEM>
CP237

>  <LABEL CLASS>
false (0)

$$$$
>  <COMPOUND>
NS(=O)(=O)c1cc2c(cc1C(F)(F)F)N[C@H](Cc1ccccc1)NS2(=O)=O

>  <TARGET SYSTEM>
CP237

>  <LABEL CLASS>
false (0)

$$$$
>  <COMPOUND>
CCCCC[C@H](O)/C=C\[C@@H]1[C@H](O)CC(=O)[C@@H]1CCCCCCC(=O)O

>  <TARGET SYSTEM>
CP237

>  <LABEL CLASS>
false (0)

$$$$
>  <COMPOUND>
NC(=O)c1ccc[n+]([C@@H]2O[C@H](COP(=O)([O-])OP(=O)(O)OC[C@H]3O[C@@H](n4cnc5c(N)ncnc54)[C@@H](O)[C@@H]3O)[C@@H](O)[C@@H]2O)c1

>  <TARGET SYSTEM>
CP237

>  <LABEL CLASS>
false (0)

$$$$
>  <COMPOUND>
C#C[C@]1(O)CC[C@@H]2[C@H]3CCC4=CCCC[C@@H]4[C@@H]3CC[C@@]21C

>  <TARGET SYSTEM>
CP237

>  <LABEL CLASS>
false (0)

$$$$
>  <COMPOUND>
Cc1ccc(S(=O)(=O)NC(=O)NN2C[C@H]3CCC[C@@H]3C2)cc1

>  <TARGET SYSTEM>
CP237

>  <LABEL CLASS>
false (0)

$$$$

Any idea what this test logged for CCC(=O)O[C@@]1(C(=O)CCl)C(C)CC2C3CCC4=CC(=O)C=C[C@@]4(C)[C@]3(F)C(O)C[C@]21C (stereo partly specified) ?
true (1)

Any idea what this test logged for "O=C(O)[C@@H]1CCCN1" ?
false (0)

Any idea what this test logged for COc1ccc(CC(N)C(=O)NC2C(CO)OC(n3cnc4c(N(C)C)ncnc43)C2O)cc1 (stereo unspecified) ?
true (1)

###

System: CP247
PROTOCOL NOTES: qHTS profiling for inhibitors of Plasmodium falciparum proliferation (AID 504749); also: nearly all actives have a fitted effect of over 60% in size
CONDITION DESCRIPTION: P. falciparum in erythrocytes, SYBR Green DNA, 72 h; series mostly up to 12.8 µM
Inconclusive results are not listed. The source made the active and inactive calls. Calls come from the whole dose curve; as a rule, active = well fitted inhibition curve with a large enough effect; inconclusive = small, poorly fitted or top-dose-only effect; inactive = flat fitted curve, though single readings scatter.
Lab note: assign the record to one of Yes for active, No for inactive

>  <COMPOUND>
CCc1c(C)[nH]c2c1C(=O)[C@H](CN1CCOCC1)CC2

>  <LABEL CLASS>
No

$$$$
>  <COMPOUND>
O=C(O)[C@@H]1CCCN1

>  <LABEL CLASS>
No

$$$$
>  <COMPOUND>
CC(=O)OCC(=O)[C@@]12OC(C)(C)O[C@@H]1C[C@H]1[C@H]3C[C@H](F)C4=CC(=O)C=C[C@@]4(C)[C@]3(F)[C@H](O)C[C@@]12C

>  <LABEL CLASS>
No

$$$$
>  <COMPOUND>
Clc1ccc([C@H](Cn2ccnc2)OCc2c(Cl)cccc2Cl)c(Cl)c1

>  <LABEL CLASS>
Yes

$$$$
>  <COMPOUND>
O=C1O[C@@H]([C@@H](O)CO)[C@@H](O)[C@H]1O

>  <LABEL CLASS>
No

$$$$
>  <COMPOUND>
C[C@]12C=CC(=O)C=C1CCC1C2C(O)C[C@]2(C)C1CC[C@]2(O)C(=O)CO (some centres not stated)

>  <LABEL CLASS>
No

$$$$
>  <COMPOUND>
Nc1nc2ncc(CNc3ccc(C(=O)NC(CCC(=O)O)C(=O)O)cc3)nc2c(=O)[nH]1 (configuration not stated)

>  <LABEL CLASS>
No

$$$$
>  <COMPOUND>
CO[C@]1(NC(=O)[C@H](C(=O)O)c2ccc(O)cc2)C(=O)N2C(C(=O)O)=C(CSc3nnnn3C)CO[C@H]21

>  <LABEL CLASS>
No

$$$$
>  <COMPOUND>
CN1CC(=O)N=C1N

>  <LABEL CLASS>
No

$$$$
>  <COMPOUND>
C[C@]12CCC(=O)C=C1CCC1C2C(=O)C[C@]2(C)C1CC[C@]2(O)C(=O)CO (some centres not stated)

>  <LABEL CLASS>
No

$$$$

Any idea what this test logged for "c1ccc2c(c1)CCC[C@@H]2C1=NCCN1" ?
No

Any idea what this test logged for "CC(=O)OCC(=O)[C@@]1(O)CC[C@@H]2[C@H]3CCC4=CC(=O)C=C[C@]4(C)[C@]3(F)[C@@H](O)C[C@@]21C" ?
No

Any idea what this test logged for "CC1(C)S[C@@H]2[C@H](NC(=O)[C@@H](N)c3ccccc3)C(=O)N2[C@H]1C(=O)O[C@H]1OC(=O)c2ccccc21" ?
No

Any idea what this test logged for "CO[C@H]1[C@@H](OC(N)=O)[C@H](O)[C@@H](Oc2ccc3c(O)c(NC(=O)c4ccc(O)c(CC=C(C)C)c4)c(=O)oc3c2C)OC1(C)C" ?
No

Any idea what this test logged for "CC(C)(C)NC[C@H](O)COc1cccc2c1C[C@@H](O)[C@@H](O)C2" ?
No

Any idea what this test logged for "COc1ccc(OC)c([C@H](O)CNC(=O)CN)c1" ?
No

Any idea what this test logged for "CC[C@@H]1OC(=O)[C@H](C)[C@H](O[C@@H]2C[C@](C)(OC)[C@H](O)[C@H](C)O2)[C@H](C)[C@H](O[C@@H]2O[C@@H](C)C[C@@H](N(C)C)[C@@H]2O)[C@](C)(O)C[C@H](C)C(=NOCOCCOC)[C@H](C)[C@H](O)[C@]1(C)O" ?
No

Any idea what this test logged for NCC1CCC(N)C(O[C@@H]2C(O)[C@H](O[C@H]3OC(CO)C(O)C(N)C3O)[C@@H](N)C[C@H]2N)O1 (some centres not stated) ?
No

Any idea what this test logged for "CCC(=O)[C@@]1(C)[C@H](C)C[C@@H]2[C@@H]3CCC4=CC(=O)C=C[C@@]4(C)[C@H]3[C@H](O)C[C@]21C" ?
No

Any idea what this test logged for "CC1(C)O[C@H]2C[C@@H]3[C@H]4CCC5=CC(=O)CC[C@@]5(C)[C@]4(F)[C@@H](O)C[C@@]3(C)[C@@]2(C(=O)CCl)O1" ?
Yes

Any idea what this test logged for "CN1C(=O)C[C@H](c2ccccc2)C1=O" ?
No
